Assay: Intrinsic clearance (CLint) assay, mouse liver microsomes
Format: in vitro ADME
Settings: mouse, pooled mouse liver microsomes, pH 7.4; read-out: Microsomal t1/2 Mouse
Description: Pooled mouse and human liver microsomes are purchased from Xenotech. […] Control incubation is included for each compound tested where 0.1 M phosphate buffer pH 7.4 is added instead of NADPH (minus NADPH). […] Quantitative analysis: following protein precipitation, the samples were analyzed using specific LC-MS/MS conditions. Data analysis: from a plot of ln peak area ratio (compound peak area/internal standard peak area) against time, the gradient of the line was determined. […]
Non-standard residues stand in square brackets, D forms with d. Residues, ends and D or L forms follow the SMILES beside them. dPhe(4-Cl) = N[C@H](Cc1ccc(Cl)cc1)C(=O)O; NMeL = CN[C@@H](CC(C)C)C(=O)O; NMeV = CN[C@H](C(=O)O)C(C)C; dOrn = NCCC[C@@H](N)C(=O)O
Field: half-life at 0.5 µM. Provide a value for each of the compounds that follow.
Expressed in h, but write only the number.

Asked: Given the compound CC[C@H](C)[C@@H]1NC(=O)[C@@H](Cc2ccc(Cl)cc2)NC(=O)[C@H](CC(C)C)NC(=O)[C@H](Cc2c[nH]c3ccccc23)NC(=O)[C@@H](CCCN)NC(=O)[C@@H](CCCN)NC1=O [Compound 18c] (cyclo(I[dOrn][dOrn]WL[dPhe(4-Cl)])) , what is its reported half-life at 0.5 µM?
Given back: 1.13

Asked: Also, CC(C)C[C@H]1NC(=O)[C@@H](Cc2ccc(Cl)cc2)NC(=O)[C@H](Cc2c[nH]c3ccccc23)NC(=O)[C@@H](CCCN)NC(=O)[C@H](CC(N)=O)NC(=O)[C@H](C(C)C)NC1=O [Compound 17c] (cyclo(N[dOrn]W[dPhe(4-Cl)][dL]V)) please.
Given back: 2.06

Asked: Also, CC(C)C[C@@H]1NC(=O)[C@H](Cc2c[nH]c3ccccc23)NC(=O)[C@@H](CCCN)NC(=O)[C@@H](CCCN)NC(=O)[C@H](C(C)C)NC(=O)[C@@H](CC(C)C)NC1=O [Compound 9c] (cyclo(L[dL]V[dOrn][dOrn]W)) please.
Given back: 1.95

Asked: Also, CC(C)C[C@H]1NC(=O)[C@H](CC(C)C)N(C)C(=O)[C@H](Cc2c[nH]c3ccccc23)NC(=O)[C@@H](CCCN)NC(=O)[C@H](CC(N)=O)NC(=O)[C@H](C(C)C)N(C)C1=O [Compound 24c] (cyclo(N[dOrn]W[NMeL][dL][NMeV])) please.
Given back: 0.261

* * *

assay: Plasma stability assay, human plasma; type: in vitro ADME; details: human, plasma; 2 hours at 37°C, triplicates; read-out: Plasma stability (% remaining) Human
Non-standard residues stand in square brackets, D forms with d. Residues, ends and D or L forms follow the SMILES beside them. dPhe(4-Cl) = N[C@H](Cc1ccc(Cl)cc1)C(=O)O; dOrn = NCCC[C@@H](N)C(=O)O
Field: remaining at 2 h, 1 uM. Provide a value for each of the molecules that follow.
Expressed in %, but write only the number.

Asked: Given the molecule CC(C)C[C@@H]1NC(=O)[C@H](Cc2c[nH]c3ccccc23)NC(=O)[C@@H](CCCN)NC(=O)[C@H](CC(N)=O)NC(=O)[C@H](C(C)C)NC(=O)[C@@H](C)NC1=O [Compound 6c] (cyclo(L[dA]VN[dOrn]W)) , what is its reported remaining at 2 h, 1 uM?
Given back: 95

Asked: Also, CC(C)C[C@@H]1NC(=O)[C@H](C)NC(=O)[C@@H](CCCN)NC(=O)[C@H](CC(N)=O)NC(=O)[C@H](C(C)C)NC(=O)[C@@H](CC(C)C)NC1=O [Compound 3c] (cyclo(AL[dL]VN[dOrn])) please.
Given back: 86

Asked: Also, CC(C)C[C@@H]1NC(=O)[C@@H](Cc2ccc(Cl)cc2)NC(=O)[C@@H](CCCN)NC(=O)[C@H](CC(N)=O)NC(=O)[C@H](C(C)C)NC(=O)[C@@H](CC(C)C)NC1=O [Compound 14c] (cyclo(L[dL]VN[dOrn][dPhe(4-Cl)])) please.
Given back: 104

Asked: Also, CC(C)C[C@@H]1NC(=O)[C@H](Cc2c[nH]c3ccccc23)NC(=O)[C@@H](CCCN)NC(=O)[C@@H](CCCN)NC(=O)[C@H](C(C)C)NC(=O)[C@@H](CC(C)C)NC1=O [Compound 9c] (cyclo(L[dL]V[dOrn][dOrn]W)) please.
Given back: 100

Asked: Also, CC(C)C[C@@H]1NC(=O)[C@@H](CC(C)C)NC(=O)[C@@H](CCCN)NC(=O)[C@H](CC(N)=O)NC(=O)[C@H](C(C)C)NC(=O)[C@H](Cc2c[nH]c3ccccc23)NC1=O [Compound 21c] (cyclo(LWVN[dOrn][dL])) please.
Given back: 97

Asked: Also, CC(C)C[C@@H]1NC(=O)[C@H](Cc2c[nH]c3ccccc23)NC(=O)[C@@H](CCCN)NC(=O)[C@H](CC(N)=O)NC(=O)[C@H](C(C)C)NC(=O)[C@@H](Cc2ccc(Cl)cc2)NC1=O [Compound 16c] (cyclo(L[dPhe(4-Cl)]VN[dOrn]W)) please.
Given back: 99

Asked: Also, CC[C@H](C)[C@@H]1NC(=O)[C@@H](CC(C)C)NC(=O)[C@H](CC(C)C)NC(=O)[C@H](Cc2c[nH]c3ccccc23)NC(=O)[C@@H](CCCN)NC(=O)[C@H](CC(N)=O)NC1=O [Compound 7c] (cyclo(IN[dOrn]WL[dL])) please.
Given back: 99

Asked: Also, CC(C)C[C@H]1NC(=O)[C@H](C)NC(=O)[C@H](Cc2c[nH]c3ccccc23)NC(=O)[C@@H](CCCN)NC(=O)[C@H](CC(N)=O)NC(=O)[C@H](C(C)C)NC1=O [Compound 2c] (cyclo(A[dL]VN[dOrn]W)) please.
Given back: 107

Asked: Also, CC(C)C[C@@H]1NC(=O)[C@H](Cc2c[nH]c3ccccc23)NC(=O)[C@@H](CCCN)NC(=O)[C@H](CC(N)=O)NC(=O)[C@H](C)NC(=O)[C@@H](CC(C)C)NC1=O [Compound 5c] (cyclo(AN[dOrn]WL[dL])) please.
Given back: 98

Asked: Also, CC(C)C[C@@H]1NC(=O)[C@H](Cc2c[nH]c3ccccc23)NC(=O)[C@@H](CCCN)NC(=O)[C@H](C)NC(=O)[C@H](C(C)C)NC(=O)[C@@H](CC(C)C)NC1=O [Compound 4c] (cyclo(A[dOrn]WL[dL]V)) please.
Given back: 95

* * *

assay: Intrinsic clearance (CLint) assay, mouse liver microsomes; type: in vitro ADME; details: mouse, pooled mouse liver microsomes, pH 7.4; Table 1; read-out: Mouse microsomal half-life
Non-standard residues stand in square brackets, D forms with d. Residues, ends and D or L forms follow the SMILES beside them. dOrn = NCCC[C@@H](N)C(=O)O
Measured Attribute: half-life at 0.5 µM

Asked: Given the compound CC(C)C[C@@H]1NC(=O)[C@H](Cc2c[nH]c3ccccc23)NC(=O)[C@@H](CCCN)NC(=O)[C@H](CC(N)=O)NC(=O)[C@H](C(C)C)NC(=O)[C@@H](CC(C)C)NC1=O [Compound 1c, wollamide B] (cyclo([dOrn]WL[dL]VN)) , what is its reported half-life at 0.5 µM?
Given back: > 2.31 h

* * *

assay: Intrinsic clearance (CLint) assay, human liver microsomes; assay type: in vitro ADME; settings: human liver microsomes
Non-standard residues stand in square brackets, D forms with d. Residues, ends and D or L forms follow the SMILES beside them. dOrn = NCCC[C@@H](N)C(=O)O
Field: CLint Human. Provide a value for each of the compounds that follow.
Expressed in mL/min/g tissue, but write only the number.

Asked: Given the compound CC[C@H](C)[C@@H]1NC(=O)[C@@H](CC(C)C)NC(=O)[C@H](CC(C)C)NC(=O)[C@H](Cc2c[nH]c3ccccc23)NC(=O)[C@@H](CCCNC(=N)N)NC(=O)[C@H](CC(N)=O)NC1=O [Compound 13c] (cyclo(IN[dR]WL[dL])) , what is its reported CLint Human?
Given back: 7.44

Asked: Also, CC[C@H](C)[C@@H]1NC(=O)[C@H]([C@@H](C)CC)NC(=O)[C@@H](CC(C)C)NC(=O)[C@H](CC(C)C)NC(=O)[C@H](Cc2c[nH]c3ccccc23)NC(=O)[C@@H](CCCN)NC1=O [Compound 12c] (cyclo(II[dOrn]WL[dL])) please.
Given back: 5.93

* * *

assay: Artificial membrane permeability assay; format: in vitro ADME; settings: PAMPA, pH 7.4; passive artificial membrane permeability; read-out: Permeability
Non-standard residues stand in square brackets, D forms with d. Residues, ends and D or L forms follow the SMILES beside them. *: point of attachment. dPhe(4-Cl) = N[C@H](Cc1ccc(Cl)cc1)C(=O)O; NMeN = CN[C@@H](CC(N)=O)C(=O)O; NMeL = CN[C@@H](CC(C)C)C(=O)O; dNMeL = CN[C@H](CC(C)C)C(=O)O; NMeV = CN[C@H](C(=O)O)C(C)C; dOrn = NCCC[C@@H](N)C(=O)O; tBu = CC(C)(C)*
Measured Attribute: Papp at 3 h

Asked: Given the molecule CC[C@H](C)[C@@H]1NC(=O)[C@@H](CC(C)C)NC(=O)[C@H](CC(C)C)NC(=O)[C@H](Cc2c[nH]c3ccccc23)NC(=O)[C@@H](CCCNC(=N)N)NC(=O)[C@H](CC(N)=O)NC1=O [Compound 13c] (cyclo(IN[dR]WL[dL])) , what is its reported Papp at 3 h?
Given back: 1.1 ×10⁻⁶ cm/s

Asked: Also, CC(C)C[C@@H]1NC(=O)[C@H](Cc2c[nH]c3ccccc23)NC(=O)[C@@H](CCCN)NC(=O)[C@H](C)NC(=O)[C@H](C(C)C)NC(=O)[C@@H](CC(C)C)NC1=O [Compound 4c] (cyclo(A[dOrn]WL[dL]V)) please.
Given back: < 0.3 ×10⁻⁶ cm/s

Asked: Also, CC(C)C[C@H]1NC(=O)[C@H](CC(C)C)N(C)C(=O)[C@H](Cc2c[nH]c3ccccc23)NC(=O)[C@@H](CCCN)NC(=O)[C@H](CC(N)=O)N(C)C(=O)[C@H](C(C)C)NC1=O [Compound 23c] (cyclo([NMeL][dL]V[NMeN][dOrn]W)) please.
Given back: < 1 ×10⁻⁶ cm/s

Asked: Also, CC(C)C[C@H]1NC(=O)[C@H](CC(C)C)N(C)C(=O)[C@H](Cc2c[nH]c3ccccc23)NC(=O)[C@@H](CCCN)NC(=O)[C@H](CC(N)=O)NC(=O)[C@H](C(C)C)N(C)C1=O [Compound 24c] (cyclo(N[dOrn]W[NMeL][dL][NMeV])) please.
Given back: < 1 ×10⁻⁶ cm/s

Asked: Also, CC[C@H](C)[C@@H]1NC(=O)[C@@H](CC(C)C)NC(=O)[C@H](CC(C)C)NC(=O)[C@H](Cc2c[nH]c3ccccc23)NC(=O)[C@@H](CCCN)NC(=O)[C@H](COC(C)(C)C)NC1=O [Compound 11c] (cyclo(IS(tBu)[dOrn]WL[dL])) please.
Given back: < 0.3 ×10⁻⁶ cm/s

Asked: Also, CC[C@H](C)[C@@H]1NC(=O)[C@H](CC(C)C)NC(=O)[C@H](Cc2c[nH]c3ccccc23)NC(=O)[C@@H](CCCN)NC(=O)[C@H](CC(N)=O)NC(=O)[C@H](C(C)C)NC1=O [Compound 20c] (cyclo(IVN[dOrn]WL)) please.
Given back: < 0.3 ×10⁻⁶ cm/s

Asked: Also, CC(C)C[C@@H]1NC(=O)[C@@H](Cc2ccc(Cl)cc2)NC(=O)[C@@H](CCCN)NC(=O)[C@H](CC(N)=O)NC(=O)[C@H](C(C)C)NC(=O)[C@@H](CC(C)C)NC1=O [Compound 14c] (cyclo(L[dL]VN[dOrn][dPhe(4-Cl)])) please.
Given back: < 1 ×10⁻⁶ cm/s

Asked: Also, CC(C)C[C@@H]1NC(=O)[C@H](Cc2c[nH]c3ccccc23)NC(=O)[C@@H](CCCN)NC(=O)[C@H](CC(N)=O)NC(=O)[C@H](C(C)C)NC(=O)[C@@H](C)NC1=O [Compound 6c] (cyclo(L[dA]VN[dOrn]W)) please.
Given back: < 1 ×10⁻⁶ cm/s

Asked: Also, CC(C)C[C@@H]1NC(=O)[C@H](Cc2c[nH]c3ccccc23)NC(=O)[C@@H](CCCN)NC(=O)[C@H](CC(N)=O)N(C)C(=O)[C@H](C(C)C)NC(=O)[C@@H](CC(C)C)N(C)C1=O [Compound 25c] (cyclo(L[dNMeL]V[NMeN][dOrn]W)) please.
Given back: < 1 ×10⁻⁶ cm/s

Asked: Also, CC[C@H](C)[C@@H]1NC(=O)[C@@H](CC(C)C)NC(=O)[C@H](CC(C)C)NC(=O)[C@H](Cc2c[nH]c3ccccc23)NC(=O)[C@@H](CCCN)NC(=O)[C@H](CO)NC1=O [Compound 10c] (cyclo(IS[dOrn]WL[dL])) please.
Given back: < 1 ×10⁻⁶ cm/s

Asked: Also, CC(C)C[C@@H]1NC(=O)[C@H](Cc2c[nH]c3ccccc23)NC(=O)[C@@H](CCCN)NC(=O)[C@H](CC(N)=O)NC(=O)[C@H](C(C)C)N(C)C(=O)[C@@H](CC(C)C)NC1=O [Compound 22c] (cyclo(L[dL][NMeV]N[dOrn]W)) please.
Given back: < 1 ×10⁻⁶ cm/s

Asked: Also, CC(C)C[C@@H]1NC(=O)[C@H](Cc2c[nH]c3ccccc23)NC(=O)[C@@H](CCCN)NC(=O)[C@H](CC(N)=O)NC(=O)[C@H](C)NC(=O)[C@@H](CC(C)C)NC1=O [Compound 5c] (cyclo(AN[dOrn]WL[dL])) please.
Given back: < 1 ×10⁻⁶ cm/s

Asked: Also, CC(C)C[C@@H]1NC(=O)[C@@H](CC(C)C)NC(=O)[C@@H](CCCN)NC(=O)[C@H](CC(N)=O)NC(=O)[C@H](C(C)C)NC(=O)[C@H](Cc2c[nH]c3ccccc23)NC1=O [Compound 21c] (cyclo(LWVN[dOrn][dL])) please.
Given back: < 0.3 ×10⁻⁶ cm/s

Asked: Also, CC(C)C[C@H]1NC(=O)[C@H](C)NC(=O)[C@H](Cc2c[nH]c3ccccc23)NC(=O)[C@@H](CCCN)NC(=O)[C@H](CC(N)=O)NC(=O)[C@H](C(C)C)NC1=O [Compound 2c] (cyclo(A[dL]VN[dOrn]W)) please.
Given back: < 1 ×10⁻⁶ cm/s

Asked: Also, CC[C@H](C)[C@@H]1NC(=O)[C@@H](Cc2ccc(Cl)cc2)NC(=O)[C@H](CC(C)C)NC(=O)[C@H](Cc2c[nH]c3ccccc23)NC(=O)[C@@H](CCCN)NC(=O)[C@@H](CCCN)NC1=O [Compound 18c] (cyclo(I[dOrn][dOrn]WL[dPhe(4-Cl)])) please.
Given back: 8 ×10⁻⁶ cm/s
